# Test system: LOX IMVI melanoma
# method-summary: NCI tumour cell line growth inhibition, 48 h
# cutoff 30 µM applies to TGI; >= gives Yes, < gives No

Confirm if TGI reported for the compound `O=C1C(N2CC2)=C(N2CC2)C(=O)C(N2CC2)=C1N1CC1` is 30 µM or above.
No

Confirm if TGI reported for the compound `COc1cc2ccccc2oc1=O` is 30 µM or above.
Yes

Confirm if TGI reported for the compound `CCN(Cc1ccc(F)cc1)c1ccc(CO)c(F)c1` is 30 µM or above.
Yes

Confirm if TGI reported for the compound `Cc1cc(Cl)ccc1Nc1nc(C(F)(F)F)ccc1C(=O)N/N=C/c1ccc(Cl)cc1` is 30 µM or above.
No

Confirm if TGI reported for the compound `COc1ccc(CNC(=O)NCn2cc(-c3ccccc3)nn2)cc1` is 30 µM or above.
Yes

Confirm if TGI reported for the compound `COc1cc(-c2cc(-c3ccccc3)nc(-c3c(OC)ccc4c(C)cc(=O)oc34)c2)cc(OC)c1OC` is 30 µM or above.
Yes

Confirm if TGI reported for the compound CCC(C)C1=C(OC(C)=O)[N+]2([O-])Oc3ccc(-c4c(OC(C)=O)c(OC(C)=O)c(-c5ccc(OC(C)=O)cc5)c(OC(C)=O)c4OC(C)=O)cc3OC2(C(C)CC)C(=O)N1OC(C)=O (stereo not given) is 30 µM or above.
Yes

Confirm if TGI reported for the compound `CC(C)=CCC/C(=C/CC/C(=C\CCc1ccoc1)C(=O)O)C(=O)O` is 30 µM or above.
Yes

Confirm if TGI reported for the compound `NC(=O)c1c(NC(=O)c2ccccn2)sc2c1CCC(=O)C2` is 30 µM or above.
Yes

* * *

# Test system: T-47D breast
# method-summary: NCI tumour cell line growth inhibition, 48 h
measured-parameter: TGI

Look at this molecule and give its reported TGI. Cc1nn(C(=O)Cc2ccccc2)c2c1C(c1ccc(O)cc1O)SC(N)=N2 (configuration not stated)
> 100 µM

Look at this molecule and give its reported TGI. `O=CN/C=C/c1cccc(O)c1`
98.7 µM

Look at this molecule and give its reported TGI. `CC(=O)OC[C@]12CC[C@@H](C(=O)CBr)[C@@H]1[C@H]1CC[C@@H]3[C@@]4(C)CCCNC(C)(C)[C@@H]4CC[C@@]3(C)[C@]1(C)CC2`
6.92 µM

Look at this molecule and give its reported TGI. CC1OC(OC2C[C@](O)(C(=O)CF)Cc3c(O)c4c(c(O)c32)C(=O)c2ccccc2C4=O)CC(N)C1O (some centres not stated)
0.151 µM

Look at this molecule and give its reported TGI. `CNc1ccc2c(c1)[C@@]1(C)c3ccccc3[C@@H](C2)N1C`
> 100 µM

Look at this molecule and give its reported TGI. `Cn1c2ccc3cc2c(=S)c2cc(ccc21)OCCOCCOCCOCCOCCO3`
> 10 µM

Look at this molecule and give its reported TGI. CCCCCCC(=O)O[C@H]1CC[C@H]2[C@@H]3CCC4C/C(=N/NC(=O)c5cccc6c(=O)c7ccccc7[nH]c56)C=C(C)[C@]4(C)[C@H]3CC[C@]12C (some centres not stated)
> 25 µM

Look at this molecule and give its reported TGI. COC(=O)C1CN=CN1CCc1ccccc1 (configuration not stated)
> 100 µM

Look at this molecule and give its reported TGI. `Cc1ccccc1C(=O)N/N=C/c1ccc(Sc2nccn2C)c([N+](=O)[O-])c1`
> 100 µM

Look at this molecule and give its reported TGI. `CN(C)C(=S)/N=c1\ssc(=S)n1Cc1cccnc1`
> 100 µM

Look at this molecule and give its reported TGI. `Clc1cc(Cl)cc(C=NC23CC4CC(CC(C4)C2)C3)c1`
> 10 µM

Look at this molecule and give its reported TGI. `O=C(N/C(=C/c1ccc(Cl)cc1Cl)c1nc2ccccc2s1)c1ccccc1`
43.3 µM

Look at this molecule and give its reported TGI. Cc1nn(C(=O)c2ccc(Cl)cc2)c2c1C(c1ccccc1[N+](=O)[O-])SC(N)=N2 (configuration not stated)
> 10 µM

Look at this molecule and give its reported TGI. CCC(C)C1=C(OC(C)=O)[N+]2([O-])Oc3ccc(-c4c(OC(C)=O)c(OC(C)=O)c(-c5ccc(OC(C)=O)cc5)c(OC(C)=O)c4OC(C)=O)cc3OC2(C(C)CC)C(=O)N1OC(C)=O (configuration not stated)
24.8 µM

Look at this molecule and give its reported TGI. `O=C(NCCNCCCNC(=O)c1cc(-c2ccccc2)nc2ccccc12)c1cccc(O)c1O`
10.8 µM

Look at this molecule and give its reported TGI. CC1CC[C@@]2(OC1)OC1C[C@H]3[C@@H]4CC=C5CC(OC6OC(CO)C(OC7OC(CO)C(O)C(OC8OCC(O)C(O)C8O)C7OC7OC(CO)C(O)C(O)C7O)C(O)C6O)CCC5(C)[C@H]4CCC3(C)C1[C@@H]2C (some centres not stated)
11.9 µM

Look at this molecule and give its reported TGI. `COC(=O)c1ccccc1OCc1cc(=O)oc2ccc(C)cc12`
> 100 µM

Look at this molecule and give its reported TGI. C/C=C\C(CC(=O)NCCC1CN(S(=O)(=O)c2ccc(C)cc2)c2ccccc21)CC(=O)OC (configuration not stated)
> 100 µM

Look at this molecule and give its reported TGI. `O=C(CCCN1CCC2(CC1)CC(=O)N(N1CCCCCC1)C2=O)c1ccccc1`
> 100 µM

Look at this molecule and give its reported TGI. `Cc1cc(N(CCC#N)CCC#N)ccc1/C(N=Nc1ccc(C(=O)O)cc1)=N\NC(=O)c1cc(Cl)ccc1O`
> 100 µM

Look at this molecule and give its reported TGI. `CC(=O)C(=Cc1ccc(C=C(C(C)=O)C(C)=O)cc1)C(C)=O`
8.49 µM

Look at this molecule and give its reported TGI. `CCOC(=O)C1=NN(c2ccc(C)cc2)C2=CC(C)=NN(C)C(=S)N21`
61.3 µM

Look at this molecule and give its reported TGI. `CN1CCN(c2ncc3c(n2)sc2c(=O)n(-c4ccccc4)cnc23)CC1`
> 100 µM

Look at this molecule and give its reported TGI. CC(C)OCC1CC(CC(=O)Nc2nncs2)C(=O)O1 (configuration not stated)
> 100 µM

Look at this molecule and give its reported TGI. `COc1cc(CO)c(CC(=O)NCCCc2ccccc2)cc1OC`
> 100 µM

Look at this molecule and give its reported TGI. `CC(C)(C)OC(=O)N1CCC(C(=O)O)CC1`
> 100 µM

Look at this molecule and give its reported TGI. `COc1cccc2c1Cc1cc(-c3ccccc3)[n+](C)n1-2`
17.7 µM

Look at this molecule and give its reported TGI. CCC(C)[C@H]1O[C@]2(C=C[C@@H]1C)C[C@@H]1C[C@@H](C/C=C(\C)[C@@H](OC3C[C@H](OC)C(O[C@H]4C[C@H](OC)[C@@H](O)[C@H](C)O4)[C@H](C)O3)[C@@H](C)/C=C/C=C3\CO[C@@H]4[C@H](O)C(C)=C[C@@H](C(=O)O1)[C@]34O)O2 (some centres not stated)
3.58 µM

Look at this molecule and give its reported TGI. CC12CC3OC(=O)C1COC14OC5(C2C1=O)C(O)(CCC1C4CC(O)C2(O)CC=CC(=O)C12C)C(=O)OC35C (configuration not stated)
> 100 µM

Look at this molecule and give its reported TGI. `COc1ccc(C(=O)c2sc(Nc3ccc(Cl)cc3)nc2N)cc1`
> 100 µM

Look at this molecule and give its reported TGI. `COc1nc(C#CC2(O)CCCCC2)nc(OC)n1`
> 100 µM

Look at this molecule and give its reported TGI. O=C(O)C1C2CCC(O2)C1C(=O)Nc1cccc2cccnc12 (configuration not stated)
> 100 µM

Look at this molecule and give its reported TGI. `O=[N+]([O-])c1ccc2c(c1)Cc1cc(N=Cc3ccc4c(c3)OCO4)ccc1-2`
> 100 µM

Look at this molecule and give its reported TGI. `O=c1ccn([C@@H]2C[C@@H]2CO)c(=O)[nH]1`
> 100 µM

Look at this molecule and give its reported TGI. `CC(C)=CCC/C(=C/CC/C(=C\CCc1ccoc1)C(=O)O)C(=O)O`
> 100 µM

Look at this molecule and give its reported TGI. `O=C1NCc2ccccc2S(=O)(=O)n2cccc21`
> 100 µM

Look at this molecule and give its reported TGI. O=C1CSC(c2ccc([N+](=O)[O-])cc2)N1c1ccc(-n2c(-c3ccccc3)nc3ccccc3c2=O)cc1 (configuration not stated)
> 100 µM

* * *

# Test system: NCI/ADR-RES ovarian
# method-summary: NCI tumour cell line growth inhibition, 48 h
Task for the reader: assign each of the following compounds its reported TGI.

Look at this compound and give its reported TGI. CC[C@]1(Cc2ccc(OC)c(OC)c2)C=[N+]([O-])O[C@H](OC2CCCC2(c2ccccc2)c2ccccc2)[C@@H]1OC(C)=O (stereo partly specified)
14.8 µM

Look at this compound and give its reported TGI. `CC(=O)Oc1ccc(-c2cc3ccccc3oc2=O)cc1`
> 100 µM

Look at this compound and give its reported TGI. COc1ccc(C2CC(C)(O)Oc3cc4c(cc32)OCO4)cc1 (stereo unspecified)
> 78.2 µM

Look at this compound and give its reported TGI. Cc1ccc(N(C(=O)Nc2ccccc2)C2=NCC(C)S2)cc1C (stereo unspecified)
52.4 µM

Look at this compound and give its reported TGI. CC1CC2OC(=O)C(C)C2CC2(C)C(OC3OC(CO)C(O)C(O)C3O)OCCC12 (stereo unspecified)
> 100 µM

Look at this compound and give its reported TGI. `Cc1cccc(CP(Cc2cccc(C)c2)CC2(Cp3c4ccccc4c4ccccc43)COC2)c1`
> 100 µM
